All values here come from patent US9346815B2.

Target: isolated recombinant JAK2 kinase domain (Homo sapiens (Human))
Sequence (O60674 849-1124): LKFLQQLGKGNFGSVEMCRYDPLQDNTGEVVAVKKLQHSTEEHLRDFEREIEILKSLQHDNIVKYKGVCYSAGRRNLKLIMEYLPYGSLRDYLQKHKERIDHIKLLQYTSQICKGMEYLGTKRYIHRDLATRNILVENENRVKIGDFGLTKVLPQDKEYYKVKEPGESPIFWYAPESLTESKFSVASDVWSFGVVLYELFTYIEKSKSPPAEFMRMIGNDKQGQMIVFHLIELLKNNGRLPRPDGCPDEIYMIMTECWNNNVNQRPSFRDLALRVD
Assay: JAK2 enzyme assay (Caliper LabChip, peptide phosphorylation)
Details: 25 μM ATP
Structures can show the parent of a compound that is named as a salt.
READOUT LABEL: Ki (pM)

CN(Cc1ccc2ccccc2c1)C1CCN(C(=O)Cn2cc(NC(=O)c3cnn4cccnc34)c(-c3cc(Cl)ccc3OC(F)F)n2)CC1 [Example 130] = 2910

a. CN(C)C1CCN(C(=O)c2ccc(-c3nc(-c4cc(Cl)ccc4OC(F)F)c(NC(=O)c4cnn5cccnc45)s3)cc2)CC1 [Example 253, hydrochloride]
b. O=C(Nc1cn(CC(=O)N2CCC(F)(F)C2)nc1-c1cc(Cl)ccc1OC(F)F)c1cnn2cccnc12 [Example 287]
Exercise: // compare measured Ki, left a , right b , return larger State the label of the item chosen.
Key: b
(b: 650 pM, a: 410 pM)
